I'd appreciate it if you could supply SI (CFPAC-1) values for the items below.
- Tested on: pancreatic ductal adenocarcinoma (CFPAC-1) cells
- experimentNotes: Antiproliferative MTT assay, CFPAC-1
- Type: cell-based, human
- details: SI = [IC50 HFF]/[IC50 CFPAC-1]
One number for each entry.

Example entries and their recorded answers appear below.
[
  {
    "compound": "O[C@@H](Cn1cc(Cn2ccc3c(Cl)ncnc32)nn1)c1ccc(F)cc1 [Compound (R)-42b]",
    "readoutName": "SI (CFPAC-1)",
    "valueReported": 1.2
  },
  {
    "compound": "O[C@H](Cn1cc(Cn2ccc3c(Cl)ncnc32)nn1)c1ccccc1 [Compound (S)-41b]",
    "readoutName": "SI (CFPAC-1)",
    "valueReported": 1.2
  }
]

Next, consider the following compound.
Query: Determine its reported SI (CFPAC-1): OC(Cn1cc(Cn2cnc3ccccc32)nn1)c1ccc(C(F)(F)F)cc1 (stereo not drawn) [Compound 35b]
Response: 0.6

====

- System: colorectal carcinoma (HT-29) cells
- experimentNotes: Antiproliferative MTT assay, HT-29
- Format: cell-based, human
- details: Homo sapiens, HT-29, 72 h, 72 h incubation, MTT; mean ± SD
- Experimental: […] Newly synthesized compounds were evaluated for their cytotoxic activity in vitro against four human cancer cell lines, including human breast adenocarcinoma (MCF-7), ductal pancreatic adenocarcinoma (CFPAC-1), colorectal carcinoma (HT-29), and hepatocellular carcinoma (HepG2), as well as on non-cancerous skin fibroblasts (HFF-1), to check for non-specific toxicity. […]
// NB: equality with 30 µM counts as no; only IC50 strictly below is yes

[
  {
    "compound": "OCC(c1ccc(Br)cc1)n1cc(Cn2cnc3c(Cl)ncnc32)nn1 (centres unmarked) [Compound 39a]",
    "classLabel": "no"
  },
  {
    "compound": "OC(Cn1cc(Cn2ccc3c(Cl)ncnc32)nn1)c1ccc(Cl)cc1 (centres unmarked) [Compound 43b]",
    "classLabel": "yes"
  },
  {
    "compound": "O[C@@H](Cn1cc(Cn2ccc3c(Cl)ncnc32)nn1)c1ccc(Cl)cc1 [Compound (R)-43b]",
    "classLabel": "no"
  },
  {
    "compound": "OCC(c1ccc(Br)cc1)n1cc(Cn2ccc3c(Cl)ncnc32)nn1 (centres unmarked) [Compound 44a]",
    "classLabel": "no"
  }
]

Query: Please let me know if OC(Cn1cc(Cn2cnc3c(Cl)nccc32)nn1)c1ccc(Br)cc1 (centres unmarked) [Compound 49b] shows IC50 below 30 µM.
Response: yes

Query: Please let me know if O[C@@H](Cn1cc(Cn2cnc3c(Cl)ncnc32)nn1)c1ccc(Cl)cc1 [Compound (R)-38b] shows IC50 below 30 µM.
Response: no

Query: Please let me know if OCC(c1ccccc1)n1cc(Cn2ccc3c(Cl)ncnc32)nn1 (centres unmarked) [Compound 41a] shows IC50 below 30 µM.
Response: no

Query: Please let me know if O[C@H](Cn1cc(Cn2ccc3c(Cl)ncnc32)nn1)c1ccc(C(F)(F)F)cc1 [Compound (S)-45b] shows IC50 below 30 µM.
Response: no

====

- Tested on: pancreatic ductal adenocarcinoma (CFPAC-1) cells
- experimentNotes: Antiproliferative MTT assay, CFPAC-1
- Assay type: cell-based, human
- details: SI = [IC50 HFF]/[IC50 CFPAC-1]
Respond with label 1 for SI (CFPAC-1) values of 0.9 and above, label 0 for values below.

Reference set (4 entries):
[
  {
    "compound": "OCC(c1ccc(Cl)cc1)n1cc(Cn2cnc3ccccc32)nn1 (stereo not drawn) [Compound 33a]",
    "classLabel": "label 1"
  },
  {
    "compound": "OCC(c1ccccc1)n1cc(Cn2ccc3c(Cl)ncnc32)nn1 (stereo not drawn) [Compound 41a]",
    "classLabel": "label 1"
  },
  {
    "compound": "O[C@@H](Cn1cc(Cn2ccc3c(Cl)ncnc32)nn1)c1ccccc1 [Compound (R)-41b]",
    "classLabel": "label 0"
  },
  {
    "compound": "OCC(c1ccc(Br)cc1)n1cc(Cn2ccc3ccccc32)nn1 (stereo not drawn) [Compound 29a]",
    "classLabel": "label 1"
  }
]

Query: SI (CFPAC-1) >= 0.9 for O[C@@H](Cn1cc(Cn2ccc3c(Cl)ncnc32)nn1)c1ccc(C(F)(F)F)cc1 [Compound (R)-45b] ?
Response: label 0

Query: SI (CFPAC-1) >= 0.9 for OCC(c1ccc(C(F)(F)F)cc1)n1cc(Cn2ccc3ccccc32)nn1 (stereo not drawn) [Compound 30a] ?
Response: label 1

Query: SI (CFPAC-1) >= 0.9 for OCC(c1ccc(Cl)cc1)n1cc(Cn2ccc3c(Cl)ncnc32)nn1 (stereo not drawn) [Compound 43a] ?
Response: label 1
